B1: Twister Ribozyme (parent)
chain: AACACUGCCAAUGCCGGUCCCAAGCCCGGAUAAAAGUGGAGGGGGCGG

Variants of: B1
Experiment: self-cleavage, relative activity (ratio to wild type); higher = more cleavage; co-transcriptional
readout kind: self-cleavage
Lab note: record just the number, no unit beside it.

A33C G38U :: 0.72
U6C G39A :: 0.273
G7A A22C :: 0.519
U31C U37G :: 1
G17A A22C :: 0.669

Note to self: self-cleavage recorded for A30C G44A was 1.01

Note to self: self-cleavage recorded for A4C A40G was 0.0825

Note to self: self-cleavage recorded for A22U C26U was 0.103

Note to self: self-cleavage recorded for G13U A40C was 0.129
